- ASSAYED_SYSTEM: Recombinant human c-Cbl (aa 47-435) (Homo sapiens, UniProt P22681)
- ASSAY: c-Cbl Biochemical Assay (TR-FRET)
- COND: hc-Cbl Biochemical Assay (TR-FRET); read-out: TR-FRET hcCbl IC50
pIC50: −log10 of the molar value.
pIC50 by entry:

Here's what some known entries look like.
{"ITEM_SMILES": "Cn1cnnc1-c1cc(F)ccc1-c1cccc(-c2nc3cc(CNCC4(F)CCC4)cc(C(F)(F)F)c3o2)c1", "ASSAYED_SYSTEM": "Recombinant human c-Cbl (aa 47-435) (Homo sapiens, UniProt P22681)", "pIC50": "> 6.70"}
{"ITEM_SMILES": "Cn1cnnc1CC1(c2cccc(-c3nc4cccc(C(F)(F)F)n4n3)c2)COC1", "ASSAYED_SYSTEM": "Recombinant human c-Cbl (aa 47-435) (Homo sapiens, UniProt P22681)", "pIC50": "4.30 to 5.00"}
{"ITEM_SMILES": "CN(Cc1cc(C(F)(F)F)c2oc(-c3cccc(-c4ccc(F)cc4-c4nncn4C)c3)nc2c1)[C@@H]1CCC[C@@H]1O", "ASSAYED_SYSTEM": "Recombinant human c-Cbl (aa 47-435) (Homo sapiens, UniProt P22681)", "pIC50": "> 6.70"}

### Prompt Which measured pIC50 belongs to COc1cc(CN[C@@H](C)C2CCC2)cc2nc(-c3cccc(-c4ccc(F)cc4-c4nncn4C)c3)oc12 , tested on Recombinant human c-Cbl (aa 47-435) (Homo sapiens, UniProt P22681)?
### Response > 6.70

### Prompt Which measured pIC50 belongs to CC(C)CC1(CNCc2cc(C(F)(F)F)c3oc(-c4cccc(-c5ccc(F)cc5-c5nncn5C)c4)nc3c2)CCC1 , tested on Recombinant human c-Cbl (aa 47-435) (Homo sapiens, UniProt P22681)?
### Response > 6.70

### Prompt Which measured pIC50 belongs to Cn1cnnc1-c1cc(F)ccc1-c1cc(Cl)nc(-c2nc3cc(CN[C@@H]4CCC[C@@H]4O)cc(C(F)(F)F)c3[nH]2)c1 , tested on Recombinant human c-Cbl (aa 47-435) (Homo sapiens, UniProt P22681)?
### Response > 6.70

### Prompt Which measured pIC50 belongs to C[C@@H]1CCCN(Cc2cc(C(F)(F)F)c3oc(-c4cccc(-c5ccccc5-c5nncn5C)c4)nc3c2)C1 , tested on Recombinant human c-Cbl (aa 47-435) (Homo sapiens, UniProt P22681)?
### Response 4.30 to 5.00

###

- ASSAYED_SYSTEM: Recombinant human Cbl-b (aa 36-427) (Homo sapiens)
- Sequence (Q13191 36-427): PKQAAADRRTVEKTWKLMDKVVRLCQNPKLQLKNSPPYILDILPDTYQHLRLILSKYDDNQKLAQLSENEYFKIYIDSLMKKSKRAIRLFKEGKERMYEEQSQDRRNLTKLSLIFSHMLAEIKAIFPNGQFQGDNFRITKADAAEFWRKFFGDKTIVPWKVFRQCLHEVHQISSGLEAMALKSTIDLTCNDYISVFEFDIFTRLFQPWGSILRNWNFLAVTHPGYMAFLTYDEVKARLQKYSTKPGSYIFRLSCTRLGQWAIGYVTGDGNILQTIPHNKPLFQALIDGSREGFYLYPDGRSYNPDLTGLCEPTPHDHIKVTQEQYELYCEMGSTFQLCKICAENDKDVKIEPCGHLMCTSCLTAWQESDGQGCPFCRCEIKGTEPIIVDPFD
- ASSAY: Cbl-b Biochemical Assay (TR-FRET)
- COND: read-out: TR-FRET hCbl-b IC50
pIC50: −log10 of the molar value.
PARAMETER_MEASURED: pIC50

{"ITEM_SMILES": "COC[C@@H](C)NCc1cc(C)c2oc(-c3cc(-c4ccc(F)cc4-c4nncn4C)cc(C4CC4)n3)nc2c1", "pIC50": "> 6.70"}
{"ITEM_SMILES": "CCNc1cc(-c2c(-c3nncn3C)cnn2C)cc(-c2nc3cccc(C(F)(F)F)c3o2)n1", "pIC50": "4.30 to 5.00"}
{"ITEM_SMILES": "COc1cc(CNCC2(O)CCC2)cc2nc(-c3cccc(-c4ccc(F)cc4-c4nncn4C)c3)oc12", "pIC50": "> 6.70"}

### Prompt Please give the measured pIC50 for this molecule: CN1CCC(C(=O)Nc2ccc3nc(-c4cccc(-c5ccccc5-c5nncn5C)c4)[nH]c3c2C(F)(F)F)CC1
### Response 4.30 to 5.00

### Prompt Please give the measured pIC50 for this molecule: Cn1cnnc1-c1cc(F)ccc1-c1cccc(-c2nc3cc(CNCC(C)(C)F)cc(C(F)(F)F)c3o2)c1
### Response > 6.70

### Prompt Please give the measured pIC50 for this molecule: Cn1cnnc1-c1cc(F)ccc1-c1cccc(-c2nc3cc(CNC4CC4)cc(C(F)(F)F)c3o2)c1
### Response > 6.70

### Prompt Please give the measured pIC50 for this molecule: Cn1cnnc1-c1ccccc1-c1cccc(-c2nc3cccc(C(F)(F)F)c3o2)c1
### Response 4.30 to 5.00

### Prompt Please give the measured pIC50 for this molecule: Cn1cnnc1-c1cc(F)ccc1-c1cccc(-c2nc3cc(CNCC4(F)CCC4)cc(C(F)(F)F)c3o2)c1
### Response > 6.70

###

- ASSAYED_SYSTEM: Recombinant human c-Cbl (aa 47-435) (Homo sapiens, UniProt P22681)
- Sequence (P22681 47-435): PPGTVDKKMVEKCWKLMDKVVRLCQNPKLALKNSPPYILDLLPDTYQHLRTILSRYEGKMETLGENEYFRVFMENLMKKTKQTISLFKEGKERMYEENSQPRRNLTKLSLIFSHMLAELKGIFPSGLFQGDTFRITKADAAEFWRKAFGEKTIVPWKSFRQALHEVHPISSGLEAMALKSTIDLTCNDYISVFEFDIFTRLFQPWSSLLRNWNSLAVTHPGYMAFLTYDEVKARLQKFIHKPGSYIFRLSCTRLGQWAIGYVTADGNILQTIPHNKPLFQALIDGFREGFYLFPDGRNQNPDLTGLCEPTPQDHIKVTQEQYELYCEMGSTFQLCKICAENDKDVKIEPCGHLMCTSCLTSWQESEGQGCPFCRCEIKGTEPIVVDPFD
- ASSAY: c-Cbl Biochemical Assay (TR-FRET)
- COND: hc-Cbl Biochemical Assay (TR-FRET); read-out: TR-FRET hcCbl IC50
pIC50: −log10 of the molar value.
pIC50 by entry:

Here's what some known entries look like.
{"ITEM_SMILES": "Cn1cnnc1-c1cc(F)ccc1-c1cc(-c2nc3cc(CNCC4(O)CCC4)cc(C(F)(F)F)c3o2)cc(C2CC2)c1", "pIC50": "> 6.70"}
{"ITEM_SMILES": "Cn1cnnc1-c1cc(F)ccc1-c1cccc(-c2nc3cc(CNCC(C)(C)O)cc(C(F)(F)F)c3o2)c1", "pIC50": "5.00 to 6.00"}
{"ITEM_SMILES": "Cn1cnnc1-c1cc(F)ccc1-c1cccc(-c2cn3cc(CN[C@@H]4CCC[C@@H]4O)ccc3n2)c1", "pIC50": "5.00 to 6.00"}
{"ITEM_SMILES": "Cn1cnnc1-c1cc(Cl)ccc1-c1ccnc(-c2nc3cc(CN[C@@H]4CCC[C@@H]4O)cc(C(F)(F)F)c3o2)c1", "pIC50": "> 6.70"}
{"ITEM_SMILES": "Cn1cnnc1CC1(c2cccc(-c3nc4cc(C(=O)N5CC[C@H](O)C5)cc(C(F)(F)F)c4[nH]3)c2)COC1", "pIC50": "5.00 to 6.00"}
{"ITEM_SMILES": "Cn1cnnc1-c1cc(F)ccc1-c1cc(-c2nc3cc(CO)ccc3o2)cc(C2CC2)c1", "pIC50": "6.00 to 6.70"}

Proceed to the following item.
### Prompt Please give the measured pIC50 for this compound: Cn1cnnc1-c1cc(F)ccc1-c1cc(-c2nc3cc(CNC(C)(C)C4CCC4)c(F)c(F)c3o2)nc(C2CC2)c1
### Response 6.00 to 6.70

###

- ASSAYED_SYSTEM: Recombinant human c-Cbl (aa 47-435) (Homo sapiens, UniProt P22681)
- ASSAY: c-Cbl Biochemical Assay (TR-FRET)
- COND: hc-Cbl Biochemical Assay (TR-FRET); read-out: TR-FRET hcCbl IC50
pIC50: −log10 of the molar value.
PARAMETER_MEASURED: pIC50

{"ITEM_SMILES": "COC(=O)c1cc(C(F)(F)F)c2oc(-c3cccc([C@]4(c5nncn5C)C[C@@H](C)C4)c3)nc2c1", "ASSAYED_SYSTEM": "Recombinant human c-Cbl (aa 47-435) (Homo sapiens, UniProt P22681)", "pIC50": "4.30 to 5.00"}

### Prompt Which measured pIC50 belongs to Cn1cnnc1-c1cc(F)ccc1-c1cc(-c2nc3cc(CNCC(C)(C)O)cc(C(F)(F)F)c3o2)cc(C2CC2)c1 , tested on Recombinant human c-Cbl (aa 47-435) (Homo sapiens, UniProt P22681)?
### Response > 6.70

### Prompt Which measured pIC50 belongs to CC(C)CNCc1cc(C(F)(F)F)c2oc(-c3cccc(-c4ccc(F)cc4-c4nncn4C)c3)nc2c1 , tested on Recombinant human c-Cbl (aa 47-435) (Homo sapiens, UniProt P22681)?
### Response > 6.70

### Prompt Which measured pIC50 belongs to Cn1cnnc1-c1cc(F)ccc1-c1cccc(-c2nc3cc(CNCCO)cc(C(F)(F)F)c3o2)c1 , tested on Recombinant human c-Cbl (aa 47-435) (Homo sapiens, UniProt P22681)?
### Response 5.00 to 6.00
